target: Kappa-type opioid receptor (Homo sapiens, UniProt P41145); test: Agonist activity at human kappa opioid receptor transfected in CHO cells by [35S]GTP-gamma-S binding assay
Sequence (P41145 whole entry): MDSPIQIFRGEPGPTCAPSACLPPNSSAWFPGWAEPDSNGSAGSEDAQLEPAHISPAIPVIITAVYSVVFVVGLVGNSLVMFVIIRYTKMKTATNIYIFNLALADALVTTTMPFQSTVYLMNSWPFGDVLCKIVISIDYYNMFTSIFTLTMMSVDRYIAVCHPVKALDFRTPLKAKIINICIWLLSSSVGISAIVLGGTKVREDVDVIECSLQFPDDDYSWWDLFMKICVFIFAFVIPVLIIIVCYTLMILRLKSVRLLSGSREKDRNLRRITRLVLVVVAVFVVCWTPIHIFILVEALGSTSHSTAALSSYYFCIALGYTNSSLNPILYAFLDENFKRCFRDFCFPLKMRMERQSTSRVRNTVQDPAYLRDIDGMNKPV
Measured attribute: EC50

1) COc1cc(CC(=O)N(C)[C@H](CN2CCCC2)c2ccccc2)c(S(=O)(=O)N(C)C)cc1OC    0.26 nM
2) COc1cc(CC(=O)N(C)[C@H](CN2CCCC2)c2ccccc2)c(S(=O)(=O)N(C)Cc2ccccc2)cc1OC    0.54 nM
3) COc1cc(CC(=O)N(C)[C@H](CN2CC[C@H](O)C2)c2ccccc2)c(S(=O)(=O)N2CCN(C)CC2)cc1OC    0.71 nM
4) CN(C(=O)Cc1cc2c(cc1S(=O)(=O)N(C)C)OCO2)[C@H](CN1CCCC1)c1ccccc1    0.1 nM
5) COc1cc(CC(=O)N(C)[C@H](CN2CCCC2)c2ccccc2)c(S(=O)(=O)N2CCOCC2)cc1OC    0.17 nM
6) COc1cc(CC(=O)N(C)[C@H](CN2CC[C@H](O)C2)c2ccccc2)c(S(=O)(=O)N2CCCC2)cc1OC    0.12 nM
7) COc1cc(CC(=O)N(C)[C@H](CN2CC[C@H](O)C2)c2ccccc2)c(S(=O)(=O)N2CCOCC2)cc1OC    0.34 nM
8) CN(C(=O)Cc1cc2c(cc1S(=O)(=O)N(C)Cc1ccccc1)OCO2)[C@H](CN1CCCC1)c1ccccc1    0.12 nM
9) CN(C(=O)Cc1cc2c(cc1S(=O)(=O)N(C)C)OCO2)[C@H](CN1CC[C@H](O)C1)c1ccccc1    0.11 nM
10) COc1cc(CC(=O)N(C)[C@H](CN2CC[C@H](O)C2)c2ccccc2)c(S(=O)(=O)N(C)C)cc1OC    0.24 nM
11) COc1cc(CC(=O)N(C)[C@H](CN2CCCC2)c2ccccc2)c(S(=O)(=O)N2CCN(C)CC2)cc1OC    0.39 nM
12) COc1cc(CC(=O)N(C)[C@H](CN2CCCC2)c2ccccc2)c(S(=O)(=O)N2CCCC2)cc1OC    0.11 nM
